inhibition values by entry
system.tested: 5-hydroxytryptamine receptor 1E (Homo sapiens)
protocol: 5-HT1E receptor antagonists, primary screen, cell-based, HTS (AID 571);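 also: signal is the 460 over 535 nm emission ratio of beta-lactamase substrate; 0% = agonist plus DMSO wells and 100% = wells without agonist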
test.conditions: CHO 5-HT1E Ga15 NFAT-bla reporter, FRET, antagonist; at 6 µM; hits give high values
Screen size: about 65,000 compounds; about 640 (0.98%) were called active. The full list was thinned out, with actives kept by preference.

The examples below pair each entry with its known result.
| compound | system.tested | inhibition |
| --- | --- | --- |
| c1ccc(-c2oc3ncnc(N4CCOCC4)c3c2-c2ccccc2)cc1 | 5-hydroxytryptamine receptor 1E (Homo sapiens) | -16.4% (inactive) |
| Cc1ccc(N(CC(O)CN2CCCC2)S(=O)(=O)c2ccccc2)cc1 (stereo unspecified) | 5-hydroxytryptamine receptor 1E (Homo sapiens) | -0.23% (inactive) |
| Cc1cc(C)cc(OCc2nnc(SCC(=O)OC3CCCCC3)o2)c1 | 5-hydroxytryptamine receptor 1E (Homo sapiens) | 1.45% (inactive) |
| FC(F)Oc1ccccc1C1CC(c2ccc(Br)s2)Nc2ncnn21 (stereo unspecified) | 5-hydroxytryptamine receptor 1E (Homo sapiens) | 12% (inactive) |

Tell me reported inhibition for CCCc1nc2ccccc2c(C(=O)OCc2nnc(-c3cc(OC)c(OC)c(OC)c3)o2)c1CC , tested with 5-hydroxytryptamine receptor 1E (Homo sapiens).
23% (inactive)

Now this one: Cc1ccc(-c2c3c(=O)n(C)c(=O)n(C)c3cn2-n2cnnc2)cc1
30.5% (active)
